Measured values drawn from the supplement of paper PMC6555819 for this set.

- Tested on: PPARa:RXRa (NR concentration 270 nM, RXRa partner concentration 90 nM)
- experimental-details: PBM binding z-score (relative to random genomic background probes); higher = stronger binding; sequences stand for … in GC…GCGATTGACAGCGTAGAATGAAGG
// PBM binding z-score lookup, one value per entry

>  <chain-sequence>
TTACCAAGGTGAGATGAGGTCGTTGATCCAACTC

>  <PBM binding z-score>
2.03

$$$$
>  <chain-sequence>
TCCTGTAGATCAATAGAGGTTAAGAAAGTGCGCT

>  <PBM binding z-score>
1.74

$$$$
>  <chain-sequence>
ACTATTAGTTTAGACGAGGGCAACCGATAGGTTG

>  <PBM binding z-score>
0.386

$$$$
>  <chain-sequence>
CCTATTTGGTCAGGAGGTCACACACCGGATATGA

>  <PBM binding z-score>
4.34

$$$$
>  <chain-sequence>
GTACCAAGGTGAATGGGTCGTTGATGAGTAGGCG

>  <PBM binding z-score>
1.71

$$$$
>  <chain-sequence>
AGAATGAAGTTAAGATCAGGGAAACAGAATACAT

>  <PBM binding z-score>
-0.111

$$$$
>  <chain-sequence>
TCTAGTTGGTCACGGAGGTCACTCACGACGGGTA

>  <PBM binding z-score>
3.15

$$$$
>  <chain-sequence>
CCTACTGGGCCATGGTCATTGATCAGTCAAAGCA

>  <PBM binding z-score>
0.969

$$$$
>  <chain-sequence>
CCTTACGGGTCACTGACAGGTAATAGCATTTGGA

>  <PBM binding z-score>
5.08

$$$$
>  <chain-sequence>
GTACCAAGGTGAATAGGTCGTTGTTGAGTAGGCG

>  <PBM binding z-score>
2.07

$$$$
>  <chain-sequence>
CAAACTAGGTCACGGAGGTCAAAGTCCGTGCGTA

>  <PBM binding z-score>
6.83

$$$$
>  <chain-sequence>
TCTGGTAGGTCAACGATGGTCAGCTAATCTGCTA

>  <PBM binding z-score>
4.35

$$$$

----------
Documented PBM binding z-score across a set of sequences
- System: PXR homodimer (NR concentration 270 nM)
- experimental-details: PBM binding z-score (relative to random genomic background probes); higher = stronger binding; sequences stand for … in GC…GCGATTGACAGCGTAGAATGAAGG

>  <chain-sequence>
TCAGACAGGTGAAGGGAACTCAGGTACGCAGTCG

>  <target-entity>
PXR homodimer (NR concentration 270 nM)

>  <PBM binding z-score>
0.499

$$$$
>  <chain-sequence>
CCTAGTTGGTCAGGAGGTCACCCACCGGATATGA

>  <target-entity>
PXR homodimer (NR concentration 270 nM)

>  <PBM binding z-score>
1.23

$$$$
>  <chain-sequence>
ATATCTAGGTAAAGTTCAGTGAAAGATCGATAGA

>  <target-entity>
PXR homodimer (NR concentration 270 nM)

>  <PBM binding z-score>
1.41

$$$$
>  <chain-sequence>
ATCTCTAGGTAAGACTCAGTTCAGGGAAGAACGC

>  <target-entity>
PXR homodimer (NR concentration 270 nM)

>  <PBM binding z-score>
1.64

$$$$
>  <chain-sequence>
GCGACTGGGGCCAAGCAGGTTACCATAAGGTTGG

>  <target-entity>
PXR homodimer (NR concentration 270 nM)

>  <PBM binding z-score>
-0.184

$$$$
>  <chain-sequence>
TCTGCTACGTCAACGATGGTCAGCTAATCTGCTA

>  <target-entity>
PXR homodimer (NR concentration 270 nM)

>  <PBM binding z-score>
-0.856

$$$$
>  <chain-sequence>
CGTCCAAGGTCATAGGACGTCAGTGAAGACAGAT

>  <target-entity>
PXR homodimer (NR concentration 270 nM)

>  <PBM binding z-score>
1.1

$$$$
>  <chain-sequence>
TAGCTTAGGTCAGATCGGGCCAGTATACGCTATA

>  <target-entity>
PXR homodimer (NR concentration 270 nM)

>  <PBM binding z-score>
-0.17

$$$$
>  <chain-sequence>
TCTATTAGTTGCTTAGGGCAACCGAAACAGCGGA

>  <target-entity>
PXR homodimer (NR concentration 270 nM)

>  <PBM binding z-score>
0.123

$$$$
>  <chain-sequence>
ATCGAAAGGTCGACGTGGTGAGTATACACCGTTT

>  <target-entity>
PXR homodimer (NR concentration 270 nM)

>  <PBM binding z-score>
0.102

$$$$
>  <chain-sequence>
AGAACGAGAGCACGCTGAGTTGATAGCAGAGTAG

>  <target-entity>
PXR homodimer (NR concentration 270 nM)

>  <PBM binding z-score>
-0.415

$$$$
>  <chain-sequence>
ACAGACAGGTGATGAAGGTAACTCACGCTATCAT

>  <target-entity>
PXR homodimer (NR concentration 270 nM)

>  <PBM binding z-score>
0.106

$$$$
